target: Acetylcholinesterase (Electrophorus electricus)
Sequence (O42275 whole entry): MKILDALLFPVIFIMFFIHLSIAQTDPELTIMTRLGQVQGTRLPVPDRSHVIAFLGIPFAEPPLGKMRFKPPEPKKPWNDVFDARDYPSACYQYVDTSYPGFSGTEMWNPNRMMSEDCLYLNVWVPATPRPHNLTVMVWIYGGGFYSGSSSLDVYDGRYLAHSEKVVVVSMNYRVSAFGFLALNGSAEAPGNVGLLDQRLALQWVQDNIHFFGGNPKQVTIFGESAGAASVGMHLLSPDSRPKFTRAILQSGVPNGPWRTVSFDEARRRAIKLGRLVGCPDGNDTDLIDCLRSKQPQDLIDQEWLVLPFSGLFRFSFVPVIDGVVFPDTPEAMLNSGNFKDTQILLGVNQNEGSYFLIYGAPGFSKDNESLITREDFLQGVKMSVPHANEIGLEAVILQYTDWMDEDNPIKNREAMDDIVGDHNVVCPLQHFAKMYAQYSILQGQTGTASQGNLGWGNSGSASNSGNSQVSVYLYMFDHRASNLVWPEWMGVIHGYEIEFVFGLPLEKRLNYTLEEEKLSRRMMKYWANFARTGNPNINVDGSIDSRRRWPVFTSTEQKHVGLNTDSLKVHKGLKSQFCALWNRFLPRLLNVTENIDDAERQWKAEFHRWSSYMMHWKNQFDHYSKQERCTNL
MEASURE: IC50
Include the unit right after the number.

Task: Query: IC50; subject: `COc1cc(C(=O)NCCCCCCCCC(=O)NNc2c3c(nc4ccccc24)CCCC3)cc(OC)c1OC`
Output: 2.73 nM

====

target: Acetylcholinesterase (Electrophorus electricus)
MEASURE: Ki (nM)
Respond numerically; units are nM and should not be typed.

Task: Under Acetylcholinesterase (Electrophorus electricus): Ki value of `COc1cc(C(=O)NCCCCCCCC(=O)NNc2c3c(nc4ccccc24)CCCC3)cc(OC)c1OC` ?
Output: 3.23

====

target: Acetylcholinesterase (Homo sapiens, UniProt P22303)
Sequence (P22303 whole entry): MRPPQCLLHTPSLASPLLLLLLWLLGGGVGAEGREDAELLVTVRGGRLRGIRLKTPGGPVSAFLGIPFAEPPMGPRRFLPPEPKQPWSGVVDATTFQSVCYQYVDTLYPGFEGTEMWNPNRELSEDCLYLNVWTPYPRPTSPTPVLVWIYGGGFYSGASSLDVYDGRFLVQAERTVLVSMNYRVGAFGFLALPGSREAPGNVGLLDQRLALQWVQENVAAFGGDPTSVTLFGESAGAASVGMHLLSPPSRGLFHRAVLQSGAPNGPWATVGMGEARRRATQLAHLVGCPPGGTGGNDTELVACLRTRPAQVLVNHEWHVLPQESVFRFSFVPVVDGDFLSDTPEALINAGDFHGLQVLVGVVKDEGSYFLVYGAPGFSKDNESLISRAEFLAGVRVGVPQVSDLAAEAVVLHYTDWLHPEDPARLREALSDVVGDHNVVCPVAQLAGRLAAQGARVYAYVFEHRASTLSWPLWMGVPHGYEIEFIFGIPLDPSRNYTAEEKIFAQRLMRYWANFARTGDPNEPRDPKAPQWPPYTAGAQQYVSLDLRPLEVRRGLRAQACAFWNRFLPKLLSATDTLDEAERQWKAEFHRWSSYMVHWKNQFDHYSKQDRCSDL
MEASURE: pIC50
# pIC50 is unitless: minus log10 of the molar concentration; print number only

Task: Would you mind telling me what pIC50 value was observed for `COc1cc(C(=O)NCCCCCCCCC(=O)NNc2c3c(nc4ccccc24)CCCC3)cc(OC)c1OC` ?
Output: 8.29
